Test system: MIA PaCa-2
runDescription: Cell viability (CellTiter-Glo, 72 h), MIA PaCa-2
Assay type: cell-based, Human
studyConditions: Homo sapiens; MIA PaCa-2, 72 hours
Each entry below carries its recorded IC50.
readout: IC50 (nM)

1. [2H]C1([2H])N(C)C([2H])([2H])C([2H])([2H])N(c2ccc(OC(F)(F)F)c(Nc3ncc4c(n3)-c3c(c(C(N)=O)nn3CCO)CC4)c2)C1([2H])[2H] [PR00012] | 262
2. CN1CCN(c2ccc(OC(F)(F)F)c(Nc3ncc4c(n3)-c3c(c(C(N)=O)nn3CCO)CC4)c2)CC1 [NMS-P937] | 196
